Tested on: T-47D breast
Assay: NCI-60 one-dose screen, 48 h
Conditions: 10 µM unless noted
Procedure: Growth inhibition of the T-47D human tumor cell line is measured as a screen for anti-cancer activity. Cells are grown in 96 well plates and exposed to the test compound for 48 hours. Compounds are tested at a single concentration, which is 10^-5 M for most compounds. The reported endpoint is percent growth (GI% or GIPRCNT), where numbers from 0 - 100% represent growth inhibition, and numbers from -100% - 0 represent cell death. For example, a value of 40 represents 60% growth inhibition. […]
About 83,000 compounds went through this panel and 20% of them were active in at least one assay; those are over-represented in the sample as a whole. Calls of active or inactive are those of the source. The calls were made as follows: active = growth percent below 10; inactive = the rest.
Classes used: true (1) for active, false (0) for inactive

molecule=COc1ccc2[nH]c(=O)c(/C=C/C(=O)c3ccc(Nc4nccc(-c5ccc6ccccc6c5)n4)cc3)cc2c1 answer_label="false (0)"
molecule=CC(=O)O[C@H]1CC[C@]2(C)[C@H]3CC[C@@H]4[C@H]5[C@H](C(C)C)CC[C@]5(C(=O)OCC(CO)(CO)N=C(N)N)CC[C@@]4(C)[C@]3(C)CC[C@H]2C1(C)C answer_label="false (0)"
molecule=COc1cc(OC)c(/C=C/S(=O)(=O)Cc2ccc(OC)c(N)n2)c(OC)c1 answer_label="false (0)"
molecule=COc1cnc2c(c1)C(=O)c1c-2n(CCCN2CCCC2)c(=O)c2cc([N+](=O)[O-])ccc12 answer_label="false (0)"
molecule=CSc1ccc(N=C=C(c2ccccc2)c2ccccc2)cc1 answer_label="false (0)"
molecule=CCOC(=O)c1nc(Nc2cc(C)[nH]n2)c2ccccc2n1 answer_label="false (0)"
molecule=CC1=N/C(=C\c2cccc(Br)c2)C(=O)O1 answer_label="false (0)"
molecule=CN(C)CC(=O)Nc1ccc(Cn2nnc3c2C(=O)c2nnn(Cc4ccc(NC(=O)CN(C)C)cc4)c2C3=O)cc1 answer_label="true (1)"
molecule=CCc1ccccc1NC(=O)c1sc2nc3c(cc2c1N)C(=O)CCC3 answer_label="false (0)"
molecule=COc1cc(OC)c(/C=C/c2cc[n+](C)c3ccccc23)c(OC)c1 answer_label="true (1)"
molecule="COc1cc(C2CC(=O)c3c(C)nn(-c4nc5ccccc5[nH]4)c3C2)cc(OC)c1OC (centres undefined)" answer_label="false (0)"
molecule=Cc1cc(N/N=C/c2nc(-c3ccc(Cl)cc3)oc2C)c2cc(Cl)ccc2n1 answer_label="false (0)"
molecule=O=c1c(/C=C/c2ccco2)nnc(SCCN2CCOCC2)n1/N=C/c1ccc([N+](=O)[O-])cc1 answer_label="false (0)"
molecule=c1ccc(-c2nc(N3CCOCC3)c3c4c(sc3n2)CCCCC4)nc1 answer_label="true (1)"
molecule=CCOC(=O)C(=Cc1ccccc1F)C(=O)OCC answer_label="false (0)"
molecule=COc1ccc(C(=O)/C=C/c2c[n+](=O)c3ccc(F)cc3n2[O-])cc1 answer_label="false (0)"
molecule=COc1ccc(-c2cc(-c3cccnc3)nc3sc4c(=O)n(-c5ccc(C)cc5)nnc4c23)cc1OC answer_label="false (0)"
molecule=CCCCCC(=O)Oc1ccc(/C(=C(\C)c2ccccc2)c2ccc(OCCN(CC)CC)cc2)cc1 answer_label="false (0)"
molecule=Cn1c2c(Cl)c(Cl)ccc2c2ccn3c(=O)c4ccccc4nc3c21 answer_label="false (0)"
molecule=Nc1cccc(NC(=O)C(=O)Nc2cccc(N)c2)c1 answer_label="false (0)"
molecule=Cn1c2ccccc2c2c3c(c4c5ccccc5n(CCCCCC#N)c4c21)C(=O)N(O)C3=O answer_label="false (0)"
molecule=O=C(O)c1ccccc1Nc1cccc(S(F)(F)(F)(F)F)c1 answer_label="false (0)"
molecule="COc1cccc2c1C(=O)c1c(O)c3c(c(O)c1C2=O)C[C@@](O)(/C(C)=N/NC(=O)c1ccc(Cl)cc1)C[C@@H]3OC1CC(N)C(O)C(C)O1 (some centres undefined)" answer_label="true (1)"
molecule=COc1ccc2nc3cc(Cl)ccc3c(N3CCN(c4nccc(NCc5ccccc5)n4)CC3)c2c1 answer_label="false (0)"
molecule=COc1cc(-c2c3sc(=O)[nH]c3nc3c2c(=O)[nH]n3C(C)C)cc2c1OCO2 answer_label="false (0)"
molecule=C/C(=C(/c1ccc(O)cc1)c1ccc(OCCN2CCCC2)cc1)c1ccccc1 answer_label="false (0)"
molecule=CC(=O)C1=C(O)C=C2Oc3c(C(=O)/C=C/c4cc(Cl)cc(Cl)c4)c(O)c(C)c(O)c3[C@]2(C)C1=O answer_label="true (1)"
molecule="CC(=O)OCC(=O)C1CCC=CC1OC(C)=O (centres undefined)" answer_label="false (0)"
molecule=CNC(=S)N/N=C/CSC/C=N/NC(=S)NC answer_label="false (0)"
molecule="CN1C2CCC1/C(=C\\c1ccc(Cl)cc1)C1=C2[C@@H](c2ccc(Cl)cc2)C(C#N)=C(N)O1 (some centres undefined)" answer_label="false (0)"
molecule=O=C1Nc2ccccc2/C1=C/C(=N/c1nnc(-c2ccccc2)s1)c1ccccc1 answer_label="false (0)"
molecule="CCCCCCCCCCCCCCCCCCNC(=O)[C@H]1CSC(c2ccc(OC)c(F)c2)N1 (some centres undefined)" answer_label="true (1)"
molecule=CNCc1cccc2c1OCCOCCOCCN(C)S(=O)(=O)c1ccc(cc1)-c1cnc(N)c(n1)C(=O)N2 answer_label="false (0)"
molecule=CC[C@H](Nc1ncnc(N)c1C(N)=O)c1nc2cccc(NCc3ccc(C(=O)NO)cc3)c2c(=O)n1-c1ccccc1 answer_label="false (0)"
